target of assay: Tyrosine-protein kinase ABL2 (Homo sapiens)
condition label: at 1 µM
Description: GSK_PKIS: ARG mean inhibition at 1 uM [Nanosyn]
property: inhibition (%)

[[record]]
compound = "COC(=O)Nc1nc2cc(Oc3cccc(NC(=O)Nc4cc(C(F)(F)F)ccc4F)c3)ccc2[nH]1"
endpoint_unit = "%"
val = 41.3

[[record]]
compound = "Cc1nn(C)c2cc(N(C)c3ccnc(Nc4cccc(S(N)(=O)=O)c4)n3)ccc12"
endpoint_unit = "%"
val = 74.4

[[record]]
compound = "O=C(Nc1n[nH]c2nc(-c3ccco3)c(Br)cc12)C1CC1"
endpoint_unit = "%"
val = 18.4

[[record]]
compound = "O=C1Nc2ccc(C(=O)c3ccco3)cc2C1=Cc1cc(Cl)c(O)c(Cl)c1"
endpoint_unit = "%"
val = 15.3

[[record]]
compound = "CCCN1CCC=C(c2ccc(Nc3nc(Nc4ccccc4C(N)=O)c4cc[nH]c4n3)c(C)c2)C1"
endpoint_unit = "%"
val = 13

[[record]]
compound = "CCc1cccc(NC(=O)Nc2ccc(Oc3ccc4nc(NC(=O)OC)[nH]c4c3)cc2)c1"
endpoint_unit = "%"
val = 44.8

[[record]]
compound = "CN1CCC(C(=O)Nc2n[nH]c3nnc(-c4ccccc4)cc23)CC1"
endpoint_unit = "%"
val = 2.58

[[record]]
compound = "COc1cc2c(cc1Nc1nc(N3CCc4ccccc43)c3cc[nH]c3n1)N(C(=O)CN(C)C)CC2"
endpoint_unit = "%"
val = 5.11

[[record]]
compound = "CCn1c(-c2nonc2N)nc2ccncc21"
endpoint_unit = "%"
val = -1.97

[[record]]
compound = "O=C1NC(=O)C(c2ccccc2Cl)=C1Nc1cccc(O)c1"
endpoint_unit = "%"
val = 1.33

[[record]]
compound = "COc1ccc(-c2nn3ncccc3c2-c2ccnc(Nc3ccc(Cl)c(C(F)(F)F)c3)n2)cc1"
endpoint_unit = "%"
val = 9.44

[[record]]
compound = "CS(=O)(=O)CCNCc1ccc(-c2ccc3ncnc(Nc4ccc(OCc5ccccc5)c(Cl)c4)c3c2)o1"
endpoint_unit = "%"
val = 5.67

[[record]]
compound = "NS(=O)(=O)c1ccc(N/N=C2\\C(=O)Nc3ccc(C(=O)NCCc4c[nH]cn4)cc32)cc1"
endpoint_unit = "%"
val = 9.57

[[record]]
compound = "NC(=O)c1cccc(Nc2nccc(Nc3cccc4[nH]ncc34)n2)c1"
endpoint_unit = "%"
val = 88.6

[[record]]
compound = "Cc1ccc(NC(=O)c2ccnc(N3CCCC3)c2)cc1-c1ccc(C(=O)NCC2CC2)cc1"
endpoint_unit = "%"
val = 7.46

[[record]]
compound = "Cn1cc(C=C2C(=O)Nc3cccnc32)c2ccccc21"
endpoint_unit = "%"
val = 20.9

[[record]]
compound = "COC(=O)Nc1nc2cc(Oc3ccc(NC(=O)Nc4cccc(C(=O)O)c4)cc3)ccc2[nH]1"
endpoint_unit = "%"
val = 3.96

[[record]]
compound = "CC1=C(C(=O)Nc2ccc3[nH]ncc3c2)C(c2ccc(Cl)c(Cl)c2)CC(=O)N1 (stereo unspecified)"
endpoint_unit = "%"
val = 3.97

[[record]]
compound = "Cc1cc(O)cc(C)c1/C=C/c1cncc(-c2nn[nH]n2)c1"
endpoint_unit = "%"
val = 68.6

[[record]]
compound = "CNC(=O)c1cncc(/C=C/c2c(Cl)cccc2Cl)c1"
endpoint_unit = "%"
val = 35.7

[[record]]
compound = "c1cnn2ncc(-c3ccnc(Nc4ccc5c(c4)OCCO5)n3)c2c1"
endpoint_unit = "%"
val = 43.9


----------
target of assay: Dual specificity protein kinase TTK (Homo sapiens)
condition label: at 0.1 µM
Description: GSK_PKIS: TTK mean inhibition at 0.1 uM [Nanosyn]
Each entry below lists one item and its recorded inhibition value.
property: inhibition (%)

[[record]]
molecule = "Cc1cc(O)cc(C)c1/C=C/c1cncc(-c2nn[nH]n2)c1"
target_of_assay = "Dual specificity protein kinase TTK (Homo sapiens)"
endpoint_unit = "%"
val = 7.11

[[record]]
molecule = "Cc1ccc(NC(=O)c2ccnc(N3CCCC3)c2)cc1-c1ccc(C(=O)NCC2CC2)cc1"
target_of_assay = "Dual specificity protein kinase TTK (Homo sapiens)"
endpoint_unit = "%"
val = 15.4

[[record]]
molecule = "CC(=O)Nc1cccc(C#Cc2cncnc2Nc2ccc(OCc3cccc(F)c3)c(Cl)c2)n1"
target_of_assay = "Dual specificity protein kinase TTK (Homo sapiens)"
endpoint_unit = "%"
val = -1.68

[[record]]
molecule = "CNC(=O)c1cncc(/C=C/c2c(Cl)cccc2Cl)c1"
target_of_assay = "Dual specificity protein kinase TTK (Homo sapiens)"
endpoint_unit = "%"
val = 17

[[record]]
molecule = "O=C1NC(=O)C(N2CCc3ccccc32)=C1c1ccc(Cl)cc1"
target_of_assay = "Dual specificity protein kinase TTK (Homo sapiens)"
endpoint_unit = "%"
val = 7.71

[[record]]
molecule = "CCn1c(-c2nonc2N)nc2ccncc21"
target_of_assay = "Dual specificity protein kinase TTK (Homo sapiens)"
endpoint_unit = "%"
val = 3.2

[[record]]
molecule = "CCn1c(-c2nonc2N)nc2c(N3CCCC3)nccc21"
target_of_assay = "Dual specificity protein kinase TTK (Homo sapiens)"
endpoint_unit = "%"
val = 9.05

[[record]]
molecule = "CC1=C(C(=O)Nc2ccc3[nH]ncc3c2)C(c2ccc(Cl)c(Cl)c2)CC(=O)N1 (stereo unspecified)"
target_of_assay = "Dual specificity protein kinase TTK (Homo sapiens)"
endpoint_unit = "%"
val = 2.15

[[record]]
molecule = "CCn1c(-c2nonc2N)nc2cnc(Oc3cccc(NC(=O)c4ccc(OCCN5CCOCC5)cc4)c3)cc21"
target_of_assay = "Dual specificity protein kinase TTK (Homo sapiens)"
endpoint_unit = "%"
val = 10.3

[[record]]
molecule = "Cn1cc(C=C2C(=O)Nc3cccnc32)c2ccccc21"
target_of_assay = "Dual specificity protein kinase TTK (Homo sapiens)"
endpoint_unit = "%"
val = 9.66

[[record]]
molecule = "COc1cccc(-n2ncc3c(N/N=C/c4cccc(F)c4)ncnc32)c1"
target_of_assay = "Dual specificity protein kinase TTK (Homo sapiens)"
endpoint_unit = "%"
val = 6.88


----------
target of assay: Tyrosine-protein kinase Fyn (Homo sapiens)
condition label: at 1 µM
Description: GSK_PKIS: FYN mean inhibition at 1 uM [Nanosyn]
property: inhibition (%)

[[record]]
molecule = "Cc1nn(C)c2cc(N(C)c3ccnc(Nc4cccc(S(N)(=O)=O)c4)n3)ccc12"
val = 28.7

[[record]]
molecule = "CC(=O)Nc1cccc(C#Cc2cncnc2Nc2ccc(OCc3cccc(F)c3)c(Cl)c2)n1"
val = 2.69

[[record]]
molecule = "COc1ccc2cc(-c3c(-c4ccncc4)nc(-c4ccc([S+](C)[O-])cc4)n3C)ccc2c1 (stereo not given)"
val = 2.67

[[record]]
molecule = "CCn1c(-c2nonc2N)nc2cncc(C(=O)N3CCNCC3)c21"
val = 2.87

[[record]]
molecule = "O=C1NC(=O)C(c2ccccc2Cl)=C1Nc1cccc(O)c1"
val = 2.43

[[record]]
molecule = "O=C1NC(=O)C(c2ccc(Cl)cc2)=C1Nc1ccc(Cl)c(C(=O)O)c1"
val = 0.57

[[record]]
molecule = "CCn1c(-c2nonc2N)nc2c(C#CC(C)(C)O)nc(OC[C@@H](N)c3ccccc3)cc21"
val = 2.07

[[record]]
molecule = "CN(C)c1cc2c(Nc3ccc4nc(Cc5ccccc5)[nH]c4c3)ncnc2cn1"
val = 27.7

[[record]]
molecule = "COc1cc2ncn(-c3cc(O[C@@H](C)c4ccccc4Cl)c(C(N)=O)s3)c2cc1OC"
val = 27.5

[[record]]
molecule = "CC1=C(C(=O)Nc2ccc3[nH]ncc3c2)C(c2ccc(Cl)c(Cl)c2)CC(=O)N1 (stereo not given)"
val = 2.37

[[record]]
molecule = "COc1cccc(-n2ncc3c(N/N=C/c4cccc(F)c4)ncnc32)c1"
val = 31.5

[[record]]
molecule = "Nc1ncnc2occ(-c3ccc(NC(=O)Nc4cc(C(F)(F)F)cc(C(F)(F)F)c4)cc3)c12"
val = 10.3

[[record]]
molecule = "CCn1c(-c2nonc2N)nc2c(C#CC(C)(C)O)nc(CN3CCCC3)cc21"
val = 3.44

[[record]]
molecule = "COC(=O)Nc1nc2cc(Oc3cccc(NC(=O)Nc4cc(C(F)(F)F)ccc4F)c3)ccc2[nH]1"
val = 7.79

[[record]]
molecule = "COc1cc(C=NNc2ncnc3c2cnn3-c2ccccc2)ccc1O"
val = 47.5

[[record]]
molecule = "CS(=O)(=O)CCNCc1ccc(-c2ccc3ncnc(Nc4ccc(OCc5ccccc5)c(Cl)c4)c3c2)o1"
val = 9.03

[[record]]
molecule = "CCc1cccc(NC(=O)Nc2ccc(Oc3ccc4nc(NC(=O)OC)[nH]c4c3)cc2)c1"
val = 4.72

[[record]]
molecule = "O=C1Nc2ccc(C(=O)c3ccco3)cc2C1=Cc1cc(Cl)c(O)c(Cl)c1"
val = 20.7

[[record]]
molecule = "Cc1cccc(-c2n[nH]cc2-c2ccc3ncccc3n2)n1"
val = 6.38

[[record]]
molecule = "NC(=O)c1cccc(Nc2nccc(Nc3cccc4[nH]ncc34)n2)c1"
val = 96.1


----------
target of assay: RAF proto-oncogene serine/threonine-protein kinase (Homo sapiens) (UniProt P04049);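 further: values are the mean percent inhibition of CRAF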
Sequence (P04049 whole entry): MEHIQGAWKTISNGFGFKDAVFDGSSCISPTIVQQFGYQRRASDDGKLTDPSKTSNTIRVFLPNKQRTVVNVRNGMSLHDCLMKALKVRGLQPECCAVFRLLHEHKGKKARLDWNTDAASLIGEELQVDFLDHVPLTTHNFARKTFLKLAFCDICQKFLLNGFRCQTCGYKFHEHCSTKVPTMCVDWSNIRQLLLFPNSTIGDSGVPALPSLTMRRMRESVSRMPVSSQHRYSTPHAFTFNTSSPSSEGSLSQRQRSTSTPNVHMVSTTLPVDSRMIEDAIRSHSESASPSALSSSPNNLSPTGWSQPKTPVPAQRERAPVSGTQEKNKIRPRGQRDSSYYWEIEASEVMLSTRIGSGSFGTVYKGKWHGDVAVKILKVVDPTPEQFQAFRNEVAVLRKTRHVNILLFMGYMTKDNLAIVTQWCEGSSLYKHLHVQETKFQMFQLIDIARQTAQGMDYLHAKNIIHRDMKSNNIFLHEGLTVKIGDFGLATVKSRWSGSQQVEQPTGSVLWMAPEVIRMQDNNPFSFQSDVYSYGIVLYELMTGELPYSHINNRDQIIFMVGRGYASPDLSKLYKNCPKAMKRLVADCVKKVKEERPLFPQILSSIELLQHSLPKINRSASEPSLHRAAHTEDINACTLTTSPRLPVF
condition label: at 1 µM
property: inhibition (%)

[[record]]
smi = "COc1ccc(-c2ccncc2)cc1C(N)=O"
property = "inhibition"
endpoint_unit = "%"
val = -2.86

[[record]]
smi = "CNC(=O)c1cncc(/C=C/c2c(Cl)cccc2Cl)c1"
property = "inhibition"
endpoint_unit = "%"
val = 0.92

[[record]]
smi = "COc1cc2c(cc1Nc1nc(N3CCc4ccccc43)c3cc[nH]c3n1)N(C(=O)CN(C)C)CC2"
property = "inhibition"
endpoint_unit = "%"
val = -4.34

[[record]]
smi = "CCn1c(-c2nonc2N)nc2c(N3CCCC3)nccc21"
property = "inhibition"
endpoint_unit = "%"
val = -1.43

[[record]]
smi = "CS(=O)(=O)CCN(CC#N)Cc1ccc(-c2ccc3ncnc(Nc4ccc(OCc5cccc(F)c5)c(Cl)c4)c3c2)o1"
property = "inhibition"
endpoint_unit = "%"
val = -3.46


Values compiled from ChEMBL document CHEMBL1961873.
